# targetOrSystem: Gal4 DNA binding domain fused to the LBD of LXRβ in HEK293 cells (Homo sapiens (Human))
# Sequence (P55055 222-460 limits assumed): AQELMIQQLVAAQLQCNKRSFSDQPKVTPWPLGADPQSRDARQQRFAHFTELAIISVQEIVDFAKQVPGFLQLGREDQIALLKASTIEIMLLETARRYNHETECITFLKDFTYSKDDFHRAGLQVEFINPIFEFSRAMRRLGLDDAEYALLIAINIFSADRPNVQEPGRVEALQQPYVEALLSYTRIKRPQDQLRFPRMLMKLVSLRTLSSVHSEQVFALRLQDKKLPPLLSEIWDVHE
# measurementNotes: cell-based
Here, each record is paired with measured Cell LXRβ efficacy data.

The compound identified as CC(C)[C@@H]1CN(c2ccc(F)c(S(C)(=O)=O)c2)CCN1c1ncc(C(=O)N(C)C)c(C(F)(F)F)n1 [Cpd No 17-1] registered its Cell LXRβ efficacy at 244 (8) %

Summary for this compound, CC(C)[C@@H]1CN(c2ccc(F)c(S(C)(=O)=O)c2)CCN1c1nc2ccc(F)cc2s1 [7-55] : Cell LXRβ efficacy is 106 (55) %

// Cell LXRβ efficacy lookup, compound = COC(=O)c1cnc(N2CCN(c3ccc(F)c(S(C)(=O)=O)c3)C[C@H]2C(C)C)nc1C(F)(F)F [9-2] , result: 86 (34) %

Reported Cell LXRβ efficacy for CC(C)[C@H]1CN(c2ccc(CO)c(S(C)(=O)=O)c2)CCN1Cc1ccc(C(F)(F)F)o1 [47-5] was 248 (50) %
